// reported IC50 per item
- Test system: HCV replicon in cell line ET (luc-ubi-neo/ET), Huh7 human hepatoma cells
- test details: HCV subgenomic replicon assay (luciferase end point)
- Type: cell-based
- test settings: Hepatitis C virus, Huh-7, read-out: Antiviral activity: IC50 (μM)
*1 amine or outer side, *2 acyl side, *3 side chain or, on linkers, in order; H or OH if unused. Where a SMILES comes first, the peptide text is derived from it. [ ]: non-standard residue; d: D form. ξ: configuration not given here. MeBmt = C/C=C/C[C@@H](C)[C@@H](O)[C@H](NC)C(=O)O; X2 = C=CCOC(C)(C)C[C@@H](C(=O)[*:2])N(C)[*:1]; X3 = CN(C)CCC[C@H](C(=O)[*:2])N(C)[*:1]; dNMeDab(Me2) = CN[C@H](CCN(C)C)C(=O)O; NMeIle(3ξ) = CCC(C)[C@H](NC)C(=O)O; NMeL = CN[C@@H](CC(C)C)C(=O)O; NMeV = CN[C@H](C(=O)O)C(C)C; Abu = CC[C@H](N)C(=O)O

C=CCOC(C)(C)C[C@H]1C(=O)N[C@@H](C(C)C)C(=O)N(C)[C@@H](CC(C)C)C(=O)N[C@@H](C)C(=O)N[C@H](C)C(=O)N(C)[C@@H](CC(C)C)C(=O)N(C)[C@@H](CC(C)C)C(=O)N(C)[C@@H](C(C)C)C(=O)N(C)[C@@H]([C@H](O)[C@H](C)C/C=C/C)C(=O)N[C@@H](CC)C(=O)N(C)[C@H](CCCN(C)C)C(=O)N1C [Example 41] (cyclo(A[dA][NMeL][NMeL][NMeV][MeBmt][Abu][X3][X2]V[NMeL])) | < 0.25 µM
C/C=C/C[C@@H](C)[C@@H](O)[C@H]1C(=O)N[C@@H](CC)C(=O)N(C)[C@H](CCN(C)C)C(=O)N(C)[C@@H](C(C)CC)C(=O)N[C@@H](C(C)C)C(=O)N(C)[C@@H](CC(C)C)C(=O)N[C@@H](C)C(=O)N[C@H](C)C(=O)N(C)[C@@H](CC(C)C)C(=O)N(C)[C@@H](CC(C)C)C(=O)N(C)[C@@H](C(C)C)C(=O)N1C (stereo partly shown) [Example 24] (cyclo(A[dA][NMeL][NMeL][NMeV][MeBmt][Abu][dNMeDab(Me2)][NMeIle(3ξ)]V[NMeL])) | < 0.25 µM
C/C=C/C[C@@H](C)[C@@H](O)[C@H]1C(=O)N[C@@H](CC)C(=O)N(C)[C@H](CCN(C)C)C(=O)N(C)[C@@H](CC(C)(C)OC)C(=O)N[C@@H](C(C)C)C(=O)N(C)[C@@H](CC(C)C)C(=O)N[C@@H](C)C(=O)N[C@H](C)C(=O)N(C)[C@@H](CC(C)C)C(=O)N(C)[C@@H](CC(C)C)C(=O)N(C)[C@@H](C(C)C)C(=O)N1C | < 0.25 µM
C/C=C/C[C@@H](C)[C@@H](O)[C@H]1C(=O)N[C@@H](CC)C(=O)N(C)[C@H](CCCN(C)C)C(=O)N(C)[C@@H](CC(C)(C)O)C(=O)N[C@@H](C(C)C)C(=O)N(C)[C@@H](CC(C)C)C(=O)N[C@@H](C)C(=O)N[C@H](C)C(=O)N(C)[C@@H](CC(C)C)C(=O)N(C)[C@@H](CC(C)C)C(=O)N(C)[C@@H](C(C)C)C(=O)N1C | < 0.25 µM
C/C=C/C[C@@H](C)[C@@H](O)[C@H]1C(=O)N[C@@H](CC)C(=O)N(C)[C@H](CCN(CC)CC)C(=O)N(C)[C@@H](CC(C)(C)OC)C(=O)N[C@@H](C(C)C)C(=O)N(C)[C@@H](CC(C)C)C(=O)N[C@@H](C)C(=O)N[C@H](C)C(=O)N(C)[C@@H](CC(C)C)C(=O)N(C)[C@@H](CC(C)C)C(=O)N(C)[C@@H](C(C)C)C(=O)N1C | < 0.25 µM

Respond only with IC50 recorded for C/C=C/C[C@@H](C)[C@@H](O)[C@H]1C(=O)N[C@@H](CC)C(=O)N(C)[C@H](CCCN(C)C)C(=O)N(C)[C@@H](C(C)CC)C(=O)N[C@@H](C(C)C)C(=O)N(C)[C@@H](CC(C)C)C(=O)N[C@@H](C)C(=O)N[C@H](C)C(=O)N(C)[C@@H](CC(C)C)C(=O)N(C)[C@@H](CC(C)C)C(=O)N(C)[C@@H](C(C)C)C(=O)N1C (stereo partly shown) [Example 45] (cyclo(A[dA][NMeL][NMeL][NMeV][MeBmt][Abu][X3][NMeIle(3ξ)]V[NMeL]))
< 0.25 µM

Respond only with IC50 recorded for "C/C=C/C[C@@H](C)[C@@H](O)[C@H]1C(=O)N[C@@H](CC)C(=O)N(C)[C@H](CCN(CC)CC)C(=O)N(C)[C@@H](CC(C)C)C(=O)N[C@@H](C(C)C)C(=O)N(C)[C@@H](CC(C)C)C(=O)N[C@@H](C)C(=O)N[C@H](C)C(=O)N(C)[C@@H](CC(C)C)C(=O)N(C)[C@@H](CC(C)C)C(=O)N(C)[C@@H](C(C)C)C(=O)N1C"
< 0.25 µM

----------
- Tested on: HCV replicon in cell line ET (luc-ubi-neo/ET), Huh7 human hepatoma cells
- test details: HCV subgenomic replicon assay (luciferase end point)
- Format: cell-based
- test settings: Hepatitis C virus, Huh-7, read-out: Antiviral activity: IC50 (μM)
*1 amine or outer side, *2 acyl side, *3 side chain or, on linkers, in order; H or OH if unused. Where a SMILES comes first, the peptide text is derived from it. [ ]: non-standard residue; d: D form. MeBmt = C/C=C/C[C@@H](C)[C@@H](O)[C@H](NC)C(=O)O; X2 = C=CCOC(C)(C)C[C@@H](C(=O)[*:2])N(C)[*:1]; X1 = CCN(CC)CC[C@H](C(=O)[*:2])N(C)[*:1]; NMeL = CN[C@@H](CC(C)C)C(=O)O; NMeV = CN[C@H](C(=O)O)C(C)C; Abu = CC[C@H](N)C(=O)O
// reported IC50 per item

C=CCOC(C)(C)C[C@H]1C(=O)N[C@@H](C(C)C)C(=O)N(C)[C@@H](CC(C)C)C(=O)N[C@@H](C)C(=O)N[C@H](C)C(=O)N(C)[C@@H](CC(C)C)C(=O)N(C)[C@@H](CC(C)C)C(=O)N(C)[C@@H](C(C)C)C(=O)N(C)[C@@H]([C@H](O)[C@H](C)C/C=C/C)C(=O)N[C@@H](CC)C(=O)N(C)[C@H](CCN(CC)CC)C(=O)N1C [Example 28] (cyclo(A[dA][NMeL][NMeL][NMeV][MeBmt][Abu][X1][X2]V[NMeL])) | < 0.25 µM

Please examine the following record next.
Respond only with IC50 recorded for "C/C=C/C[C@@H](C)[C@@H](O)[C@H]1C(=O)N[C@@H](CC)C(=O)N(C)[C@@H](CCN(C)C)C(=O)N(C)[C@@H](CC(C)(C)O)C(=O)N[C@@H](C(C)C)C(=O)N(C)[C@@H](CC(C)C)C(=O)N[C@@H](C)C(=O)N[C@H](C)C(=O)N(C)[C@@H](CC(C)C)C(=O)N(C)[C@@H](CC(C)C)C(=O)N(C)[C@@H](C(C)C)C(=O)N1C"
< 5 µM
